Reference for the values: paper PMC10108266

# test_details: JACKPOT2 multiple-ascending-dose plasma PK (once daily, 14 days)
# Format: in vivo, human
# stated_conditions: human, plasma, oral, 100 mg, 100 mg once daily, Day 14; geometric mean (CV%); read-out: AUC0-24h
readout_name: AUC(0-t)
Kindly format the answer as number then unit.

Incoming: Quick one: AUC(0-t) of COc1nn(C)cc1Nc1nccc(-c2c[nH]c3c(NC(=O)[C@@H](C)N4CCN(C)CC4)cccc23)n1 ?
Outgoing: 7190 ng·h/mL

###

# test_details: JACKPOT2 single-ascending-dose plasma PK, healthy participants in USA
# Format: in vivo, human
# stated_conditions: human, plasma, oral; single dose 150 mg; mean (SD); read-out: Vz/F
readout_name: Vd/F (L)
Note: unit L is implicit; provide only the numeric part.

Incoming: Quick one: Vd/F of COc1nn(C)cc1Nc1nccc(-c2c[nH]c3c(NC(=O)[C@@H](C)N4CCN(C)CC4)cccc23)n1 ?
Outgoing: 1400
